Tested on: SK-OV-3
Assay: NCI tumour cell line growth inhibition, 48 h
Calls of active or inactive are those of the source. Rule as the data show it: active = GI50 up to about 1.1 µM and inactive = higher. Residues, ends and D or L forms follow the SMILES beside them. *: point of attachment. Pentanoyl = CCCCC(=O)*; Boc = CC(C)(C)OC(=O)*
Classes used: 1 = active, 0 = inactive

1) CC(=O)OCC1=C2C(OC(=O)C(C)C)CC3(COC(C)=O)OC3/C=C\C3(C)OC3C2OC1=O (centres undefined) | 0
2) NC(=O)c1cc(C2OC(CO)C(O)C2O)nn1-c1ccc([N+](=O)[O-])cc1 (centres undefined) | 0
3) Cc1ccccc1N1C(=O)/C(=C/c2ccc(N(CCC#N)CCC#N)cc2)N=C1c1cc([N+](=O)[O-])ccc1Cl | 0
4) O=c1c2c3c(sc2nc2n1N=CN(c1ccccc1)C2)CCCC3 | 0
5) S=c1c2cn[nH]c2nc2scc(-c3ccc(Cl)cc3)n12 | 0
6) CCOC(=O)N[C@H]1CCc2cc(O)c(OC)c(OC)c2-c2ccc(SC)c(=O)cc21 | 1
7) O=[N+]([O-])c1cccc(CSc2nc(O)c3nc[nH]c3n2)c1 | 0
8) Cn1c2c(cc(-c3ccccc3)c1=O)COc1ccccc1-2 | 0
9) O=c1[nH][nH]c(=O)n1CCCCCCn1c(=O)[nH][nH]c1=O | 0
10) OCC(O)C(O)C(O)C1SC(c2ccccc2)=NN1c1ccccc1 (centres undefined) | 0
11) N/C(=N\n1c(=S)[nH]c2ccccc2c1=O)Nn1c(=S)[nH]c2ccccc2c1=O | 0
12) O=c1c2cc(-c3ccccc3)sc2nc2sc(-c3ccccc3)nn12 | 0
13) Cc1ccc(/C=C2/NC(=S)SC2=O)cc1 | 0
14) NC(CCC(=O)O)C(=O)N1CCN(c2nc(N3CCCC3)c3nc(Cl)c(NCc4ccccc4)nc3n2)CC1 (centres undefined) | 0
15) CCCCC(=O)Oc1ccc(CC(NC(=O)OC(C)(C)C)C(=O)NC(C)C(=O)NC(Cc2ccccc2)C(=O)NCC(N)=O)cc1 (centres undefined) (Boc-Y(Pentanoyl)AFG-NH2; configuration not given here) | 0
16) CC(=O)C1=CCC2c3[nH]c4ccccc4c3CCN2C1 (centres undefined) | 0
17) CCN(C(=O)N[C@H](C(=O)N[C@@H](CSC)C(=O)N[C@@H](C)C(=O)OC)C(C)C)c1ccccc1 | 0
18) CC1(C)CC[C@]2(C(=O)O)[C@H](O)C[C@]3(C)C(=CC[C@@H]4[C@@]5(C)CC[C@H](OC6OC(C(=O)O)C(O)C(O)C6O)C(C)(C)[C@@H]5CC[C@]43C)[C@@H]2C1 (some centres undefined) | 0
19) CSc1cc(Br)ccc1-n1c(C(=O)c2ccccc2)c(SC)n(-c2ccccc2)c1=O | 0
20) Cc1ccc(NC(=O)C(=O)CC(=O)c2c(C)[n+]([O-])c3ccccc3[n+]2[O-])cc1C | 0
21) N#CSC/C(Cl)=C/Cl.N#CSC/C(Cl)=C\Cl | 0
22) COC(=O)C1(O)CC(=O)CCC1c1ccc(OC)cc1 (centres undefined) | 0
23) CC(=O)c1[nH]c(NCc2ccccc2)c(C(=S)Nc2ccccc2)c1N | 0
24) CCOC(=O)NC(=O)c1cn(CCN2CCN(C(=O)NCCCCCCNC(=O)N3CCN(CCn4cc(C(=O)NC(=O)OCC)c(=O)n(CCN(CC)CC)c4=O)CC3)CC2)c(=O)n(CCC(CC)CC)c1=O | 0
25) Nc1ccccc1-c1noc(=O)[nH]1 | 0
26) O=C(O)CN(c1ccccc1)S(=O)(=O)c1ccc(Cl)cc1 | 0
27) C[C@]12CC[C@@H]3c4cc(C=O)c(OCc5ccccc5)cc4CC[C@H]3[C@@H]1CCC2OCc1ccccc1 (some centres undefined) | 0
28) CCN(CC)CCCCC1CCN(CC(=O)N2c3cc(Cl)ccc3NC(=O)CC2C)CC1 (centres undefined) | 0
29) CCc1n[nH]c(=O)n1/N=C/c1ccc(C)cc1 | 0
30) Nc1nc(Cl)c2ncn(Cc3cccc(CCl)c3)c2n1 | 0
31) CC12CCCCC1=C(F)C(F)(F)S2 (centres undefined) | 0
32) CCN(CC)CCC(=O)c1ccc(C)cc1 | 0
33) O=C(c1ccco1)N(C(=S)N1CCN(c2ccccn2)CC1)c1ccccc1 | 0
34) CCOP(=O)(OCC)/C(C#N)=C/c1cnc(-c2ccccc2)[nH]1 | 0
35) COc1ccc(NC(=O)/C(Cc2cc(=O)oc3cc(O)ccc23)=N\NC(C)(C)C)c(OC)c1 | 0
36) CCC(NC1=NCCO1)c1cccs1 (centres undefined) | 0
37) O=[N+]([O-])c1ccc2c3ccccc3[s+]([O-])c2c1 (centres undefined) | 0
38) C/C(=N\Nc1ccc([N+](=O)[O-])cc1[N+](=O)[O-])c1sc(-n2nc(-c3ccccc3)cc2-c2ccccc2)nc1C | 0
39) COC(=O)/C=C/[C@@H]1[C@H](C)N1S(=O)(=O)c1ccc(C)cc1 (some centres undefined) | 0
